# target-or-system: T1, cynomolgus TIM-3 on isolated cyno CD14+ monocytes (cynomolgus)
# T1 construct: whole, on cells
# method: flow cytometry, cyno CD14+ monocytes cyno3
Collected MFI values appear next to each entry.
All answers are understood in MFI, so give the number only.

## Task Look up MFI for this binder: Tim3_0033 (antibody, V domains shown) VH: QGQMHQSGAELVKPGSSVKLSCKTSGFTFSSSFISWLKQKPGQSLEWIAWIYAATGSTSYNQKFTNKAQLTVDTSSSAAYMQFSSLTTEDSAIYYCARHAGYPHYYAMDYWGQGTSVTVSS VL: DIQMTQSPASLSASVGETVTITCRASENIFSNLAWYQQKQGKSPQLLVYSATNLGDGVPSRFSGSGSGTQFSLKINSLQPEDFGNYYCQHFYKIPFTFGTGTKLEIK
## Result 83

Others:
## Task Could you share which MFI value was measured for Tim3_0030 (antibody, V domains shown) VH: QIQLVQSGPELKKPGETVKISCKASGYPFSEYSIHWVKQAPGKGLKWMVYVNTETGQPIVGDDFRGRFVLSLETSASTAYLQINNLKNEDTATYFCGGGGYPAYWGQGTLVTVSA VL: DVLMTQTPLSLPVSLGDQASISCRSSRSIVHSSGNTYLEWYLQKPGQSPKLLIYKVSNRFSGVPDRFSGSGSGTDFTLNISRVEAEDLGVYYCFQDSHVPFTFGTGTKLEIK ?
## Result 144
